Target: human GHS-R 1a (Homo sapiens)
Test: GHS-R 1a receptor-ligand binding assay (membrane preparations from transfected LLC PK-1 cells)
Details: displacement of 125I-His9-ghrelin (60 pM); membranes of LLC PK-1 cells transfected with human GHS-R 1a; mean of at least two independent experiments in triplicates
pIC50: −log10 of the molar value.
MEASURED_QUANTITY: pIC50

>  <COMPOUND>
COc1ccc(Cn2c(CCc3c[nH]c4ccccc34)nnc2[C@@H](Cc2c[nH]c3ccccc23)NC(=O)c2ccccn2)cc1 [compound 80]

>  <pIC50>
8.72

$$$$
>  <COMPOUND>
COc1ccc(Cn2c(CCc3c[nH]c4ccccc34)nnc2[C@H](Cc2c[nH]c3ccccc23)NC(=O)C(C)(C)N)c(OC)c1 [compound 18]

>  <pIC50>
7.08

$$$$
>  <COMPOUND>
COc1ccc(-n2c(CCc3ccccc3)nnc2[C@@H](Cc2c[nH]c3ccccc23)NC(=O)C2CCNCC2)c(OC)c1 [compound 163]

>  <pIC50>
7.20

$$$$

a = Cc1ccc(Cn2c(CCc3c[nH]c4ccccc34)nnc2[C@@H](Cc2c[nH]c3ccccc23)NC(=O)C(C)(C)N)cc1 [compound 34]
b = COc1ccc(Cn2c(CCc3ccccc3)nnc2[C@@H](Cc2c[nH]c3ccccc23)NC(=O)c2ccccn2)cc1 [compound 79]
Prompt: When their pIC50 values are compared, which is larger, a or b ? Selection: enter the item's label.
Completion: b
(b: 9.15, a: 7.55)

====

Molecular target: human GHS-R 1a (Homo sapiens)
Test: GHS-R 1a receptor-ligand binding assay (membrane preparations from transfected LLC PK-1 cells)
Conditions: displacement of 125I-His9-ghrelin (60 pM); membranes of LLC PK-1 cells transfected with human GHS-R 1a; mean of at least two independent experiments in triplicates
MEASURED_QUANTITY: IC50 (nM)

>  <COMPOUND>
COc1ccc(Cn2c(CCc3c[nH]c4ccccc34)nnc2[C@@H](Cc2c[nH]c3ccccc23)NC(=O)CN)cc1 [compound 152]

>  <IC50 [nM]>
138

$$$$

1 = COc1ccc(Cn2c(CCc3ccccc3)nnc2[C@@H](Cc2c[nH]c3ccccc23)NC(=O)C2CCOCC2)cc1 [compound 184]
2 = CC(C)(N)C(=O)N[C@H](Cc1c[nH]c2ccccc12)c1nnc(CCc2c[nH]c3ccccc23)n1CCc1ccccc1 [compound 2]
3 = CC(C)(N)C(=O)N[C@H](Cc1c[nH]c2ccccc12)c1nnc(CCc2c[nH]c3ccccc23)n1-c1ccccc1 [compound 175]
Prompt: Ranking field: IC50; order: falling. Returns: the labels listed in the requested order.
Completion: 3, 2, 1

====

Biological target: human GHS-R 1a (Homo sapiens)
Assay: GHS-R 1a receptor-ligand binding assay (membrane preparations from transfected LLC PK-1 cells)
Settings: displacement of 125I-His9-ghrelin (60 pM); membranes of LLC PK-1 cells transfected with human GHS-R 1a; mean of at least two independent experiments in triplicates
MEASURED_QUANTITY: IC50 (nM)

Answered examples (5):
>  <COMPOUND>
COc1ccc(Cn2c(CCc3c[nH]c4ccccc34)nnc2[C@@H](Cc2c[nH]c3ccccc23)NC(=O)[C@@H]2CCCN2)c(OC)c1 [compound 70]

>  <MEASURED_QUANTITY>
IC50

>  <MEAS_VALUE>
6

$$$$
>  <COMPOUND>
CCc1ccc(Cn2c(CCc3ccccc3)nnc2[C@@H](Cc2c[nH]c3ccccc23)NC(=O)C2CNCCN2)cc1 (mixture of isomers) [compound 84]

>  <MEASURED_QUANTITY>
IC50

>  <MEAS_VALUE>
247

$$$$
>  <COMPOUND>
COc1ccc(Cn2c(CCc3ccccc3)nnc2[C@@H](Cc2c[nH]c3ccccc23)NC(=O)C2CNCCN2)c(OC)c1 (stereo partly shown) [compound 67]

>  <MEASURED_QUANTITY>
IC50

>  <MEAS_VALUE>
35

$$$$
>  <COMPOUND>
CC(C)(N)C(=O)N[C@H](Cc1c[nH]c2ccccc12)c1nnc(CCc2ccccc2)n1Cc1cccc2ccccc12 [compound 27]

>  <MEASURED_QUANTITY>
IC50

>  <MEAS_VALUE>
126

$$$$
>  <COMPOUND>
CCc1ccc(-n2c(CCc3c[nH]c4ccccc34)nnc2[C@@H](Cc2c[nH]c3ccccc23)NC(=O)Cc2ccccn2)cc1 [compound 148]

>  <MEASURED_QUANTITY>
IC50

>  <MEAS_VALUE>
96

$$$$

I = CCCCCCn1c(CCc2c[nH]c3ccccc23)nnc1[C@@H](Cc1c[nH]c2ccccc12)NC(=O)C(C)(C)N [compound 15]
II = COc1ccc(-n2c(CCc3ccccc3)nnc2[C@@H](Cc2c[nH]c3ccccc23)NC(=O)c2ccccn2)c(OC)c1 [compound 159]
III = COc1ccc(Cn2c(CCc3ccccc3)nnc2[C@@H](Cc2c[nH]c3ccccc23)NC(=O)[C@@H]2C[C@@H](O)CN2)cc1 [compound 40]
IV = COc1ccc(Cn2c(CCc3c[nH]c4ccccc34)nnc2[C@@H](Cc2c[nH]c3ccccc23)NC(=O)C2CCCNC2)c(OC)c1 (stereo partly shown) [compound 32]
V = CCc1ccc(Cn2c(CCc3ccccc3)nnc2[C@@H](Cc2c[nH]c3ccccc23)NC(=O)Cc2ccccn2)cc1 [compound 82]
Prompt: Sort these compounds on IC50 so the largest reading comes first. Output the labels ranked as instructed.
Completion: III, I, V, II, IV

A = COc1ccc(Cn2c(CCc3c[nH]c4ccccc34)nnc2[C@@H](Cc2c[nH]c3ccccc23)NC(=O)c2ccccc2N)c(OC)c1 [compound 38]
B = CC(C)(N)C(=O)N[C@H](Cc1c[nH]c2ccccc12)c1nnc(Cc2ccccc2)n1Cc1ccc(F)cc1 [compound 30]
Prompt: Of A and B , which carries the smaller reported IC50 figure? API: response body contains the label of the selected item.
Completion: A
(A: 112 nM, B: 171 nM)

====

Biological target: human GHS-R 1a (Homo sapiens, UniProt Q92847)
Sequence (Q92847 whole entry): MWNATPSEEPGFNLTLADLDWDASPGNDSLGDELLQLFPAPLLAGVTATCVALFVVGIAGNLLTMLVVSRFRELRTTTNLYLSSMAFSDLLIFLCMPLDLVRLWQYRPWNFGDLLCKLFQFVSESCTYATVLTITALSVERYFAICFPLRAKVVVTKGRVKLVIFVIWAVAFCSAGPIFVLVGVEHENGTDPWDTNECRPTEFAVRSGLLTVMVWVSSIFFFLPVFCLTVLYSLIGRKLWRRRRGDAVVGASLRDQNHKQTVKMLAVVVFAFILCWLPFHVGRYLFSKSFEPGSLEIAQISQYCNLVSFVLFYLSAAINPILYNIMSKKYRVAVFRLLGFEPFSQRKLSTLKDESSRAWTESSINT
Assay: GHS-R 1a receptor-ligand binding assay (membrane preparations from transfected LLC PK-1 cells)
Conditions: displacement of 125I-His9-ghrelin (60 pM); membranes of LLC PK-1 cells transfected with human GHS-R 1a; mean of at least two independent experiments in triplicates
MEASURED_QUANTITY: IC50 (nM)

Consider the worked cases shown below.
>  <MOLECULE>
COc1ccc(Cn2c(CCc3ccccc3)nnc2[C@@H](Cc2c[nH]c3ccccc23)NC(=O)CN)c(OC)c1

>  <IC50 / nM>
140

$$$$
>  <MOLECULE>
O=C(Cc1ccccn1)N[C@H](Cc1c[nH]c2ccccc12)c1nnc(CCc2c[nH]c3ccccc23)n1Cc1ccccc1

>  <IC50 / nM>
61

$$$$
>  <MOLECULE>
COc1ccc(Cn2c(CCc3c[nH]c4ccccc34)nnc2[C@@H](Cc2c[nH]c3ccccc23)NC(=O)C(C)(C)N)cc1

>  <IC50 / nM>
6

$$$$
>  <MOLECULE>
COc1ccc(Cn2c(CCc3ccccc3)nnc2[C@@H](Cc2c[nH]c3ccccc23)NC(=O)[C@@H]2CCCNC2)cc1

>  <IC50 / nM>
7

$$$$
>  <MOLECULE>
COc1ccc(Cn2c(CCc3c[nH]c4ccccc34)nnc2[C@@H](Cc2c[nH]c3ccccc23)NC(=O)[C@H]2CCCCN2)cc1

>  <IC50 / nM>
29

$$$$

1 = CC(C)(N)C(=O)N[C@H](Cc1c[nH]c2ccccc12)c1nnc(CCCc2c[nH]c3ccccc23)n1Cc1ccccc1
2 = COc1ccc(Cn2c(CCc3ccccc3)nnc2[C@@H](Cc2c[nH]c3ccccc23)NC(=O)c2cnccn2)c(OC)c1
3 = O=C(N[C@H](Cc1c[nH]c2ccccc12)c1nnc(CCc2c[nH]c3ccccc23)n1-c1ccccc1)c1ccccn1
Prompt: I would appreciate it if you could sort these 3 molecules by IC50, starting from the smallest number. Hello, could you send the labels back in the order asked? Thank you.
Completion: 2, 1, 3

a = COc1ccc(Cn2c(CCc3c[nH]c4ccccc34)nnc2[C@@H](Cc2c[nH]c3ccccc23)NC(=O)C2CCCCN2)c(OC)c1 (stereo partly shown)
b = CC(C)(N)C(=O)N[C@H](Cc1c[nH]c2ccccc12)c1nnc(CCc2c[nH]c3ccccc23)n1Cc1ccc(Cl)c(Cl)c1
Prompt: Given a and given b , which shows the smaller recorded IC50? Answer = label.
Completion: a
(a: 53 nM, b: 79 nM)

====

Target: human GHS-R 1a (Homo sapiens)
Assay: GHS-R 1a receptor-ligand binding assay (membrane preparations from transfected LLC PK-1 cells)
Details: displacement of 125I-His9-ghrelin (60 pM); membranes of LLC PK-1 cells transfected with human GHS-R 1a; mean of at least two independent experiments in triplicates
MEASURED_QUANTITY: IC50 (nM)

Example cases with answers are listed next.
>  <CHEM_SMILES>
CCc1ccc(Cn2c(CCc3ccccc3)nnc2[C@@H](Cc2c[nH]c3ccccc23)NC(=O)c2cnccn2)cc1

>  <UOM>
nM

>  <MEAS_VALUE>
89

$$$$
>  <CHEM_SMILES>
COc1cccc(Cn2c(Cc3ccccc3)nnc2[C@@H](Cc2c[nH]c3ccccc23)NC(=O)C(C)(C)N)c1

>  <UOM>
nM

>  <MEAS_VALUE>
120

$$$$
>  <CHEM_SMILES>
COc1ccc(Cn2c(CCc3ccccc3)nnc2[C@@H](Cc2c[nH]c3ccccc23)NC(=O)c2ccccc2)cc1

>  <UOM>
nM

>  <MEAS_VALUE>
80

$$$$
>  <CHEM_SMILES>
CC(C)(N)C(=O)N[C@H](Cc1c[nH]c2ccccc12)c1nnc(CCc2c[nH]c3ccccc23)n1Cc1ccc(F)cc1

>  <UOM>
nM

>  <MEAS_VALUE>
66

$$$$
>  <CHEM_SMILES>
COc1cccc(Cn2c(CCc3ccccc3)nnc2[C@@H](Cc2c[nH]c3ccccc23)NC(=O)C(C)(C)N)c1

>  <UOM>
nM

>  <MEAS_VALUE>
78

$$$$

a = COc1ccc(Cn2c(CCc3ccccc3)nnc2[C@@H](Cc2c[nH]c3ccccc23)NC(=O)c2ccc(N=[N+]=[N-])cc2)c(OC)c1
b = COc1ccc(Cn2c(Cc3ccccc3)nnc2[C@@H](Cc2c[nH]c3ccccc23)NC(=O)C(C)(C)N)cc1
Prompt: Hey, between a and b which has a smaller measured IC50? The response must carry the label of the picked entry.
Completion: a

Numbers sourced from patent US8710089B2.
